# tested_system: acetylcholinesterase (AChE) (Electrophorus electricus, UniProt O42275)
# Construct: purchased Sigma-Aldrich
# Sequence (O42275 24-633): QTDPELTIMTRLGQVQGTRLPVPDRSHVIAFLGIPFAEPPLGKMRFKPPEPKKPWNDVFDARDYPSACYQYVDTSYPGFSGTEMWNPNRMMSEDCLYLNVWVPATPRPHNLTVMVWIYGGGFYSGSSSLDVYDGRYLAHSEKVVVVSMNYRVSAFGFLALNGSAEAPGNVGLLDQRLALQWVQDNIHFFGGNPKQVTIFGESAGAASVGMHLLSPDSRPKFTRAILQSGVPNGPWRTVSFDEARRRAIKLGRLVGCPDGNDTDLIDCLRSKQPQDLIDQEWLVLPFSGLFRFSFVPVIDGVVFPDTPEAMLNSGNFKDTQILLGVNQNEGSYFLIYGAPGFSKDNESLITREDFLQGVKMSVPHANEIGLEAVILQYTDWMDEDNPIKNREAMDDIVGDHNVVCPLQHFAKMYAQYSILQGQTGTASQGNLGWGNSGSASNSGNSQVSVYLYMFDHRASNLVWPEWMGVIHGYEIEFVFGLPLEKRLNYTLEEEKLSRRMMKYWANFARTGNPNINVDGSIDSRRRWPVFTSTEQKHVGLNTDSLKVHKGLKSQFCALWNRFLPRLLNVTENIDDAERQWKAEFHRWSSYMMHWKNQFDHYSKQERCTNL
# test_protocol: biochemical
# recorded_conditions: solvent extracts (Table 3)
parameter_measured: IC50
Answer with the value and then the unit.

May I ask what IC50 has been recorded for O=C(/C=C/c1ccc(O)c(O)c1)O[C@@H]1C[C@](O)(C(=O)O)C[C@@H](O)[C@H]1O [Chlorogenic acid, chlorogenic acid, reference compound] ?
386 µM

====

# test_protocol: Radical scavenging activity of superoxide
# recorded_conditions: isolated components (Table 4); read-out: SC50 Superoxide
Quick reference for pEC50 among some compounds
Conceptually, pEC50 converts a concentration in mol/L into minus its log10.

{"compound": "Oc1cc(O)c2c(c1)O[C@H](c1ccc(O)c(O)c1)[C@H](O)C2 [Epicatechin (5), epicatechin]", "parameter_measured": "pEC50", "test_value": 3.68}
{"compound": "C[C@@H]1O[C@@H](OC[C@H]2O[C@@H](Oc3c(-c4ccc(O)c(O)c4)oc4cc(O)cc(O)c4c3=O)[C@H](O)[C@@H](O)[C@@H]2O)[C@H](O)[C@H](O)[C@H]1O", "parameter_measured": "pEC50", "test_value": 5.17}

Look up pEC50: O=c1cc(-c2ccc(O)c(O)c2)oc2cc(O[C@@H]3O[C@H](CO)[C@@H](O)[C@H](O)[C@H]3O)cc(O)c12 [Cynaroside, cynaroside, reference compound]
4.42

====

# tested_system: α-glucosidase (Saccharomyces cerevisiae, UniProt P53341)
# Construct: purchased Sigma-Aldrich
# Sequence (P53341 whole entry): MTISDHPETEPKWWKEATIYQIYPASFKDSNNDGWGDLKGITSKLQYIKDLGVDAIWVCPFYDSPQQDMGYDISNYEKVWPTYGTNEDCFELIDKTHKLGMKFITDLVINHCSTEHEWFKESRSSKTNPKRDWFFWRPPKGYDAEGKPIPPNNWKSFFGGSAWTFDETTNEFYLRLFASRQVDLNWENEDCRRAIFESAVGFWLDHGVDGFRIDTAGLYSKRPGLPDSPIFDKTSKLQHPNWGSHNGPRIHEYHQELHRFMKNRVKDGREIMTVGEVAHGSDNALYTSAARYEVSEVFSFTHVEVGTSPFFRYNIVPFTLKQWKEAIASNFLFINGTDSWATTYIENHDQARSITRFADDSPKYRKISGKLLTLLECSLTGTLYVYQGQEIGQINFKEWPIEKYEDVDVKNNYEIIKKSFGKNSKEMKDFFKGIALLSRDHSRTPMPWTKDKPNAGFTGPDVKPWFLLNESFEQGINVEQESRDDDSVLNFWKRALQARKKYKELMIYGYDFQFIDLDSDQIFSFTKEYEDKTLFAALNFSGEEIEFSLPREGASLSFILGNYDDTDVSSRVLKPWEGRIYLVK
# test_protocol: Enzyme inhibition assay of α-glucosidase
# Assay type: biochemical, S. cerevisiae
# recorded_conditions: isolated components (Table 5); read-out: IC50 α-Glucosidase
parameter_measured: IC50 (µM)
// units = µM; emit number, no label

What value of IC50 has been recorded for this entry: C[C@H]1[C@H](C)CC[C@]2(C(=O)O)CC[C@]3(C)C(=CC[C@@H]4[C@@]5(C)C[C@@H](O)[C@H](O)C(C)(C)[C@@H]5CC[C@]43C)[C@H]12 [Corosolic acid (3), corosolic acid]
13.8

====

# test_protocol: Ferric reducing antioxidant power (FRAP)
# recorded_conditions: isolated components (Table 4); mM Trolox equivalents per g
parameter_measured: TE FRAP

{"compound": "Cc1cc(C(C)(C)C)c(O)c(C(C)(C)C)c1 [BHT, reference compound]", "TE FRAP": "3082.65 ± 213.69 ^B mM/g"}
{"compound": "C[C@@H]1O[C@@H](OC[C@H]2O[C@@H](Oc3c(-c4ccc(O)c(O)c4)oc4cc(O)cc(O)c4c3=O)[C@H](O)[C@@H](O)[C@@H]2O)[C@H](O)[C@H](O)[C@H]1O", "TE FRAP": "1609.10 ± 25.67 ^A mM/g"}
{"compound": "CC1(C)CC[C@]2(C(=O)O)CC[C@]3(C)C(=CC[C@@H]4[C@@]5(C)CC[C@H](O)C(C)(C)[C@@H]5CC[C@]43C)[C@@H]2C1", "TE FRAP": "<1 mM/g"}
{"compound": "CC1CCC2(C(=O)O)CCC3(C)C(=CCC4C5(C)CC(O)C(O)C(C)(C)C5CCC43C)C2C1(C)O (stereo not drawn)", "TE FRAP": "<1 mM/g"}
{"compound": "C[C@H]1[C@H](C)CC[C@]2(C(=O)O)CC[C@]3(C)C(=CC[C@@H]4[C@@]5(C)C[C@@H](O)[C@H](O)C(C)(C)[C@@H]5CC[C@]43C)[C@H]12", "TE FRAP": "<1 mM/g"}

Alright, here's another compound for you.
# get_value(readout='TE FRAP', item= Oc1cc(O)c2c(c1)O[C@H](c1ccc(O)c(O)c1)[C@H](O)C2 [Epicatechin (5), epicatechin] )
1694.43 ± 21.45 ^A mM/g
